- TARGET_DESC: human wild type-CFTR (Homo sapiens)
- Sequence (P13569 whole entry): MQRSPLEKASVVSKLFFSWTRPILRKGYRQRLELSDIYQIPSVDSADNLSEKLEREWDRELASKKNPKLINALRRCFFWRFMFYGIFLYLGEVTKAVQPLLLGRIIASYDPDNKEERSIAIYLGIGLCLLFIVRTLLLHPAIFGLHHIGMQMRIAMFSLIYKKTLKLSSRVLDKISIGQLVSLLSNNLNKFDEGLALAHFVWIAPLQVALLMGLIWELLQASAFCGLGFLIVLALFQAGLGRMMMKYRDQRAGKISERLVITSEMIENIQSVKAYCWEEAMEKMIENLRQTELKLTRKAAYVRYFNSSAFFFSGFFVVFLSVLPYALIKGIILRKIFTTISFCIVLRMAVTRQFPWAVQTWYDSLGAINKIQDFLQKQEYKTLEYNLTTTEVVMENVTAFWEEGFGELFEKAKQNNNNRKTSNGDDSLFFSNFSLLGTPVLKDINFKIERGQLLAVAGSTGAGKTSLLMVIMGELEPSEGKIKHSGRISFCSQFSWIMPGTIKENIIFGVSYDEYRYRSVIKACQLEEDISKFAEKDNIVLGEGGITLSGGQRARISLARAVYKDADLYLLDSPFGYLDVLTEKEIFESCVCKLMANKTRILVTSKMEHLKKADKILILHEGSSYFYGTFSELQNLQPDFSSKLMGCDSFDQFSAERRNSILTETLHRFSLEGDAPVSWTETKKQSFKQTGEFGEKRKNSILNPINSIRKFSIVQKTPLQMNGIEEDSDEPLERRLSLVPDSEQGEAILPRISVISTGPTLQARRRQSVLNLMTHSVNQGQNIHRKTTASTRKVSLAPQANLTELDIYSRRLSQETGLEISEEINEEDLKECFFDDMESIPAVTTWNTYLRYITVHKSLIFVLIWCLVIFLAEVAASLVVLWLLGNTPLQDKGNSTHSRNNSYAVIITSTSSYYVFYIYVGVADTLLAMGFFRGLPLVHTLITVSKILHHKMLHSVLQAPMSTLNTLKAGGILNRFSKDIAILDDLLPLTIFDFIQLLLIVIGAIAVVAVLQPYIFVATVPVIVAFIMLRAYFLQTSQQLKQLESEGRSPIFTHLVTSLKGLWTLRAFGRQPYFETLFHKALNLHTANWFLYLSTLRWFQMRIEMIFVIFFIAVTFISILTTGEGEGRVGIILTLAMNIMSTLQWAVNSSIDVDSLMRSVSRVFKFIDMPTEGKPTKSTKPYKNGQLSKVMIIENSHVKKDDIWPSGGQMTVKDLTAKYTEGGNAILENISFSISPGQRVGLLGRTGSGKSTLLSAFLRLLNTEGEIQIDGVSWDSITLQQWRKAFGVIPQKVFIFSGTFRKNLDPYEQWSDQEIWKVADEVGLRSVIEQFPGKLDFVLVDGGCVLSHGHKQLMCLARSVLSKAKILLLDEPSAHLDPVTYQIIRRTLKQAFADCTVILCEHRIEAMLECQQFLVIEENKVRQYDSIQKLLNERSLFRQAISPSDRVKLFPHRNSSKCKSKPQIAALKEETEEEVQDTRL
- PROTOCOL_DESCRIPTION: Cell-based YFP assay
- Design: expressed in transfected cells; host or cells: CHO-K1 (Chinese hamster ovary)
- ASSAY_SETUP: CHO-K1 cells expressing human wild type-CFTR and YFP-H148Q/I152L; forskolin 20 μM = 100% activity; read-out: Cell-based YFP Assay (EC50) Concentration Range
Recorded EC50, one value per entry.

{"SMILES_STRUCTURE": "COc1ccc(-c2ccnc3cc(C(=O)Nc4cccnc4)nn23)cc1OC", "EC50": "0.2 to 2 µM"}
{"SMILES_STRUCTURE": "COC(=O)c1ccc(NC(=O)c2cc3nccc(-c4ccc(OC)c(OC)c4)n3n2)cc1O", "EC50": "< 0.2 µM"}
{"SMILES_STRUCTURE": "COC(=O)c1ccc(N(C)C(=O)c2cc3nccc(-c4ccc(OC)c(OC)c4)n3n2)cc1", "EC50": "0.2 to 2 µM"}
{"SMILES_STRUCTURE": "COc1ccc(-c2ccnc3cc(C(=O)N4CCN[C@@H](C5CC5)C4)nn23)cc1OC", "EC50": "0.2 to 2 µM"}

// provenance: patent US20240199623A1
